- testDetails: Cmax in C57BL/6 mouse cornea at 172 nM instilled per eye
- Format: ADME, organism-based
- Set-up: dose 172 nM, route ophthalmic
- testConditions: topical or ocular, 172 nM per eye
parameter: Cmax at 0.172 µM (µM)
Report only the number, with the unit µM understood.

Reported Cmax at 0.172 µM for Cc1cc(-c2cc(OC(=O)c3ccccc3)ccc2Cl)cc2nnc(Nc3ccc(OCCN4CCCC4)cc3)nc12 [TG100-801] was 3.7

---

- testDetails: AUC (0 to 24 hrs) in C57BL/6 mouse cornea at 137 nM instilled per eye
- Type: ADME, organism-based
- Parameters: dose 137 nM, time < 24 hr, route ophthalmic
- testConditions: topical or ocular, 137 nM per eye
parameter: AUC(0-t) at 24 h, 0.137 µM
Note: a bare number is incomplete; add the unit.

Briefly, AUC(0-t) at 24 h, 0.137 µM measured for Cc1cc(-c2cc(O)ccc2Cl)cc2nnc(Nc3ccc(OCCN4CCCC4)cc3)nc12 : 560 µg·h/mL

---

- Species: Mus musculus
- testDetails: Cmax in C57BL/6 mouse plasma assessed as 4-chloro-3-{5-methyl-3-[4-(2-pyrrolidin-1-yl-ethoxy)phenylamino]benzo[1,2,4]triazin-7-yl}phenol at 172 nM instilled per eye
- Format: ADME, organism-based
- Design: dose 172 nM, route ophthalmic
- testConditions: in vivo, topical_or_ocular, 0.172 µM
parameter: Cmax

Lookup result for Cc1cc(-c2cc(OC(=O)c3ccccc3)ccc2Cl)cc2nnc(Nc3ccc(OCCN4CCCC4)cc3)nc12 [TG100-801] ; measured Cmax: 5 nM

---

- testDetails: Cmax in C57BL/6 mouse cornea at 137 nM instilled per eye
- Assay type: ADME, organism-based
- Set-up: dose 137 nM, route ophthalmic
- testConditions: topical or ocular, 137 nM per eye
parameter: Cmax at 0.137 µM (µM)
Write it as a number; the unit µM goes unstated.

Query Cc1cc(-c2cc(O)ccc2Cl)cc2nnc(Nc3ccc(OCCN4CCCC4)cc3)nc12 yields Cmax at 0.137 µM of 64
